IC50 values recorded for ROCK2 (Homo sapiens (Human), UniProt O75116)

{"columns": ["Compound", "Measured Target", "Measured Quantity", "Value Measured"],
 "data": [
  ["COc1cccc(N[C@@H]2CCN(c3ccc4c(c3)CCc3n[nH]cc3-4)C2=O)c1", "ROCK2 (Homo sapiens (Human), UniProt O75116)", "IC50", "< 10 nM"],
  ["O=C1N(Cc2ccc(F)c(F)c2)CCN1c1ccc2c(n1)OCc1n[nH]cc1-2", "ROCK2 (Homo sapiens (Human), UniProt O75116)", "IC50", "100 to 500 nM"],
  ["Cc1c(F)cccc1NC1CCN(c2ccc3c(n2)OCc2n[nH]cc2-3)C1=O (stereo not drawn)", "ROCK2 (Homo sapiens (Human), UniProt O75116)", "IC50", "100 to 500 nM"]
]}

Form field, IC50 with ROCK2 (Homo sapiens (Human), UniProt O75116), item COc1cccc(N[C@H]2CCN(c3ccc4c(c3)CCc3n[nH]cc3-4)C2=O)c1 : < 10 nM

O=C1C(Nc2cccc(-c3cnco3)c2)CCN1c1ccc2c(n1)OCc1n[nH]cc1-2 (racemic) on ROCK2 (Homo sapiens (Human), UniProt O75116) gives IC50 = 500 to 2000 nM

Let me check: Cc1cc(CN2CCN(c3ccc4c(n3)OCc3n[nH]cc3-4)C2=O)ccc1F , system ROCK2 (Homo sapiens (Human), UniProt O75116), measured IC50 is 100 to 500 nM

Observed IC50, ROCK2 (Homo sapiens (Human), UniProt O75116), COc1cccc([C@@H](C)N2CCN(c3ccc4c(c3)CCc3n[nH]cc3-4)C2=O)c1 : < 10 nM

# lookup: COc1cccc(CN2CCN(c3ccc4c(n3)CCc3n[nH]cc3-4)C2=O)c1 on ROCK2 (Homo sapiens (Human), UniProt O75116), IC50 = < 10 nM
